Measured on: Mu Receptor (Rattus norvegicus)
Construct: Rat (Sprague-Dawley) brain membranes were prepared; from tissue; host or cells: rat (Sprague-Dawley) brain membranes
Sequence (P33535 whole entry): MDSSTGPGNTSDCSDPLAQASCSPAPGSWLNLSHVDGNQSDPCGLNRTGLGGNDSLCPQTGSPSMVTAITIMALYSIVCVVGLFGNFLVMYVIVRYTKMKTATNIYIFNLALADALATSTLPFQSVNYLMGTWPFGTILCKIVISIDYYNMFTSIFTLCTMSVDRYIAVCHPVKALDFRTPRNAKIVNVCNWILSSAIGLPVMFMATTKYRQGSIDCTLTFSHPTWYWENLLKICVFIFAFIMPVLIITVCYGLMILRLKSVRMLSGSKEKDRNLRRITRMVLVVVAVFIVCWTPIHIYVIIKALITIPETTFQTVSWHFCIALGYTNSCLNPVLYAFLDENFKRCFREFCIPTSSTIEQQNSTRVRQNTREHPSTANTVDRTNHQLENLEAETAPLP
Test protocol: Mu receptor binding, rat brain membranes
Set-up: species or system rat (Sprague-Dawley)
Settings: 125I-[D-Ala2,N-MePhe4,Met(O)ol5]enkephalin 0.1 nM, 24° C., 60 min, mean of (n) experiments, read-out: Mu Receptor IC50
pIC50: −log10 of the molar value.
Classify by measured pIC50: condition met if it is equal to or exceeds 7, condition not met if it is smaller.

Q. # check: pIC50 of C=CCN1C[C@H](C)N([C@H](c2ccc(C(=O)NCCOCCOCCNC(=O)c3ccc([C@H](c4cccc(O)c4)N4C[C@@H](C)N(CC=C)C[C@@H]4C)cc3)cc2)c2cccc(O)c2)C[C@H]1C (relative stereo) [Example 41] is greater than or equal to 7
A. condition met

Q. Next up: CCN(CC)C(=O)c1ccc(C(c2cccc(O)c2)N2C[C@@H](C)N(C)[C@@H](C)C2)cc1 (relative stereo) [Example 34]
A. condition not met

Q. Again, but for C=CCN1C[C@H](C)N(C(c2ccc(C(=O)N(CC)CC)cc2)c2cccc(NC=O)c2)C[C@H]1C (mixture of isomers) [Example 36]
A. condition not met

Q. // next record C=CCN1C[C@H](C)N([C@H](c2cccc(O)c2)c2cccs2)C[C@H]1C (relative stereo) [Example 44]
A. condition met

====

Measured on: Mu Receptor (Rattus norvegicus)
Construct: Rat (Sprague-Dawley) brain membranes were prepared; from tissue; host or cells: rat (Sprague-Dawley) brain membranes
Test protocol: Mu receptor binding, rat brain membranes
Design: species or system rat (Sprague-Dawley)
Settings: read-out: Mu Receptor IC50, 125I-[D-Ala2,N-MePhe4,Met(O)ol5]enkephalin 0.1 nM, 24° C., 60 min, mean of (n) experiments
Measured attribute: IC50
Note to self: number, then unit, no commentary.

Q. What does the record list as IC50 for C=CCN1C[C@H](C)N([C@H](c2cccc(O)c2)c2cccs2)C[C@H]1C ?
A. 0.3 nM

====

Measured on: Mu Receptor (Rattus norvegicus)
Construct: Rat (Sprague-Dawley) brain membranes were prepared; from tissue; host or cells: rat (Sprague-Dawley) brain membranes
Test protocol: Mu receptor binding, rat brain membranes
Parameters: species or system rat (Sprague-Dawley)
Settings: 125I-[D-Ala2,N-MePhe4,Met(O)ol5]enkephalin 0.1 nM, 24° C., 60 min, mean of (n) experiments, read-out: Mu Receptor IC50
Measured attribute: pIC50
The scale used: pIC50 is minus the common logarithm of the concentration in molar units.

Compound | Recorded value
CCN(CC)C(=O)c1ccc([C@H](c2cccc(O)c2)N2C[C@@H](C)N(C)C[C@H]2C)cc1 [Example 13] | 5.62
C=CCN1C[C@H](C)N([C@H](c2ccc(C(=O)N(CC)CCO)cc2)c2cccc(O)c2)C[C@H]1C (relative stereo) [Example 60] | 7.70
C/C=C\CN1[C@H](C)CN(C(c2ccc(C(=O)N(CC)CC)cc2)c2cccc(O)c2)C[C@@H]1C (relative stereo) [Example 11] | 6.22

Q. // returns reported pIC50 for input C=CCN1C[C@H](C)N([C@H](c2ccc(S(C)(=O)=O)cc2)c2cccc(O)c2)C[C@H]1C (relative stereo) [Example 54]
A. 7.40

Q. Similarly, C=CCN1C[C@@H](C)N([C@H](c2ccccc2)c2cccc(O)c2)C[C@@H]1C (relative stereo) [Example 9] ?
A. 8.96

Q. Can you check C=CCN1C[C@H](C)N([C@H](c2ccc(C(=O)NCC(=O)NCC(=O)O)cc2)c2cccc(O)c2)C[C@H]1C (relative stereo) [Example 25] next?
A. 7.15

// provenance: patent US5658908A
